Reported log10 of Amount excreted in urine, 3-6 h values are given for each entry in this list.
Assay: Urinary excretion of phenolic metabolites after intake of the GCPE nutraceutical
Settings: week 0, interval 3–6 h
metric: log10 of Amount excreted in urine, 3-6 h (log10 of the value in µmol)

compound | log10 of Amount excreted in urine, 3-6 h
COc1ccc(/C=C/C(=O)NCC(=O)O)cc1O | -1.46
COc1cc(/C=C/C(=O)NCC(=O)O)ccc1O | -0.05
COc1ccc(CCC(=O)O)cc1O[C@@H]1O[C@H](C(=O)O)[C@@H](O)[C@H](O)[C@H]1O [DHiFA-3′-glucuronide] | -0.80
COc1cc(CCC(=O)OC2CC(O)(C(=O)O)CC(O)C2O)ccc1O (stereo not shown) [3-Dihydroferuloylquinic acid] | -1.47
O=C(O)CCc1ccc(O[C@@H]2O[C@H](C(=O)O)[C@@H](O)[C@H](O)[C@H]2O)cc1 [DHCoA-4′-glucuronide, 3-(Phenyl)propanoic acid-4′-glucuronide] | -1.00
O=C(O)CCc1ccc(O)c(O[C@@H]2O[C@H](C(=O)O)[C@@H](O)[C@H](O)[C@H]2O)c1 [DHCA-3′-glucuronide] | -1.15
O=C(CCc1ccc(O)c(O)c1)OC1C(O)CC(O)(C(=O)O)CC1O (stereo not shown) [4-Dihydrocaffeoylquinic acid] | -2.30
O=C(O)/C=C/c1ccc(O)c(OS(=O)(=O)O)c1 [CA-3′-sulfate, 4′Hydroxycinnamic acid-3′-sulfate] | -0.15
O=C(/C=C/c1ccc(O)c(O)c1)O[C@@H]1C[C@](O)(C(=O)O)C[C@@H](O)[C@H]1O | -1.10
COc1ccc(CCC(=O)O)cc1OC [Dihydrodimethoxycinnamic acid, 3-(3′,4′-Dimethoxyphenyl)propanoic acid] | -1.10
O=C(O)CCc1ccc(O)cc1 [DHCoA, 3-(4′-Hydroxyphenyl)propanoic acid] | -1.05
COc1ccc(CCC(=O)O)cc1OS(=O)(=O)O [DHiFA-3′-sulfate] | -1.00
O=C(/C=C/c1ccc(O)c(O)c1)O[C@@H]1C[C@@](O)(C(=O)O)C[C@@H](O)[C@@H]1O | -0.92
